# ASSAY TARGET: T1, human PRLR (Biacore antigen) (human, UniProt P16471 25-234, limits assumed)
# T1 construct: The construct injected over captured antibody is not described (a soluble form is likely); also called huPRLR
# T1 sequence: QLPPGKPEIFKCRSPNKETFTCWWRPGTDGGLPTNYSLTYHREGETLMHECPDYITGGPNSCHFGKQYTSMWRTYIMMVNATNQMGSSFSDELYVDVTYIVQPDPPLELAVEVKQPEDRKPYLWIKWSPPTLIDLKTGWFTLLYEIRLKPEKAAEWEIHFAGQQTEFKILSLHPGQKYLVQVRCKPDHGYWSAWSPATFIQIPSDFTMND
# MEASUREMENT DESCRIPTION: SPR simultaneous binding; PRLR held by surface mAb Ab48
Listed next: entries and their corresponding solution mAb binding, % of PRLR binding.
Dear colleague, please return just the value in %, with no unit written.

Example results:
LFA102 (antibody, human IgG1, kappa, V domains shown, humanized IgG1 kappa comparator (WO 2008022295)) VH: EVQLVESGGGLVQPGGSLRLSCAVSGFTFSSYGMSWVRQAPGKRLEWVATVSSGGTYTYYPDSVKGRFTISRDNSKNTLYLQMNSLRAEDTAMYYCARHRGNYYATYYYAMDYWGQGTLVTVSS VL: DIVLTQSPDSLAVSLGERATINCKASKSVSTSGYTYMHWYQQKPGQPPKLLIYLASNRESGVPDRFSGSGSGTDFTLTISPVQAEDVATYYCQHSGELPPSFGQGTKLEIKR : -1
chAb7 (antibody, human IgG1, kappa, V domains shown, chimeric, murine variable and human G1/kappa constant regions) VH: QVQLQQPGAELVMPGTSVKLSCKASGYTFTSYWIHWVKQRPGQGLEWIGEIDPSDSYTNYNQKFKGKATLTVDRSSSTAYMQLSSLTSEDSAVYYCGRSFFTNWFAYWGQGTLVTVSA VL: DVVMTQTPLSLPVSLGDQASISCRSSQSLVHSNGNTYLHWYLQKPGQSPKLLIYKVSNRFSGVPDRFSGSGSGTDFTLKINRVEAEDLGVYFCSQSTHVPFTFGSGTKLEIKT : 1

Provide one value: measured solution mAb binding, % of PRLR binding of Ab19 (antibody, human IgG1, kappa, V domains shown, humanized from Ab6; G1; also called Ab1 HC.1a and Ab1 LC.1a) VH: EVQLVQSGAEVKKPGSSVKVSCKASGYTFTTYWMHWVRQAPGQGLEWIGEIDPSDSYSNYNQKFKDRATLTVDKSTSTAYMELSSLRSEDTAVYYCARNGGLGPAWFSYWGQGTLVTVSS VL: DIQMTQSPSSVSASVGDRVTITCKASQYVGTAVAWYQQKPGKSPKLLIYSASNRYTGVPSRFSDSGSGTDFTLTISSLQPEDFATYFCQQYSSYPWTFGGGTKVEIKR
0
